Cited source: the supplement of paper PMC5303821

As shown below, each of these compounds has a reported maximal culture density value.
test system: soa1 del; assay: maximal culture density with compound as sole sulfur source (OD600); higher = better growth; settings: sulfur source concentration 200 µM; S. cerevisiae S288C/BY sul1Δ sul2Δ soa1Δ with transporter ortholog inserted at SOA1 locus; sulfur-free B medium, 4% glucose, pH 6.5, sole sulfur source
Structures can show the parent of a compound that is named as a salt.

{"columns": ["compound", "maximal culture density"],
 "data": [
  ["C[N+](C)(C)CCOS(=O)(=O)[O-] [Choline sulfate]", 0.22],
  ["N[C@@H](CS(=O)(=O)O)C(=O)O [L-cysteic acid]", 0.254],
  ["O=S(=O)(O)O [sulfate]", 0.212],
  ["CCS(=O)(=O)O [Ethanesulfonate]", 0.215],
  ["CCCS(=O)(=O)O [Propanesulfonate]", 0.212],
  ["O=S(=O)(O)CO [Hydroxymethane sulfonate]", 0.212],
  ["O=C(O)CS(=O)(=O)O [Sulfoacetic acid]", 0.216],
  ["O=S(=O)(O)CCO [Isethionate]", 0.235],
  ["NCCS(=O)(=O)O [Taurine]", 0.217],
  ["CCCCS(=O)(=O)O [Butanesulfonate]", 0.247],
  ["CSCC[C@H](N)C(=O)O [Methionine]", 1.69],
  ["O=S(O)O [sulfite]", 0.222]
]}

====

test system: Aspergillus nidulans_CBF74694; test: maximal growth rate with compound as sole sulfur source (OD600 per h); higher = better growth / uptake of the sulfur source; details: sulfur source concentration 200 µM; S. cerevisiae S288C/BY sul1Δ sul2Δ soa1Δ with transporter ortholog inserted at SOA1 locus; sulfur-free B medium, 4% glucose, pH 6.5, sole sulfur source
As shown below, each of these compounds has a reported maximal growth rate value.
experimentalReadout: maximal growth rate

{"columns": ["compound", "assayTarget", "value"],
 "data": [
  ["O=S(=O)(O)CO [Hydroxymethane sulfonate]", "Aspergillus nidulans_CBF74694", 0.00325],
  ["N[C@@H](CS(=O)(=O)O)C(=O)O", "Aspergillus nidulans_CBF74694", 0.003],
  ["CCCS(=O)(=O)O [Propanesulfonate]", "Aspergillus nidulans_CBF74694", 0.00267],
  ["O=C(O)CS(=O)(=O)O", "Aspergillus nidulans_CBF74694", 0.00286],
  ["CSCC[C@H](N)C(=O)O", "Aspergillus nidulans_CBF74694", 0.138],
  ["CCS(=O)(=O)O [Ethanesulfonate]", "Aspergillus nidulans_CBF74694", 0.00278],
  ["NCCS(=O)(=O)O", "Aspergillus nidulans_CBF74694", 0.00281]
]}

====

system: Metarhizium robertsii_XP_007823832; experiment: maximal culture density with compound as sole sulfur source (OD600); higher = better growth; details: sulfur source concentration 200 µM; S. cerevisiae S288C/BY sul1Δ sul2Δ soa1Δ with transporter ortholog inserted at SOA1 locus; sulfur-free B medium, 4% glucose, pH 6.5, sole sulfur source
Counter-ions that a name gives are not always drawn.

{"columns": ["compound", "maximal culture density"],
 "data": [
  ["O=S(O)O [sulfite]", 1.56],
  ["CCCS(=O)(=O)O [Propanesulfonate]", 0.507],
  ["C[N+](C)(C)CCOS(=O)(=O)[O-] [Choline sulfate]", 1.61],
  ["O=S(=O)(O)O [sulfate]", 1.57]
]}
